These measurements were taken from paper PMC2756588.

target.or.system: T1, Lsb4, P32793
T1 sequence (P32793 402-468, looked up): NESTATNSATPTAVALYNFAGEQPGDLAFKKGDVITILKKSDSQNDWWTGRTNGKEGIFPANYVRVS
assay.details: SPOT array
setup.conditions: median of control spots 397
Can you tell me SPOT intensity for the items I'm about to list?
Response field accepts a number only; no unit should be typed.

Q: Supply recorded SPOT intensity for LLGRKRPVMERVVDI here.
A: 27

Q: Supply recorded SPOT intensity for YYNRQELALPKRMSS here.
A: 45

Q: Supply recorded SPOT intensity for RTRRRPPPPPIPSTQ here.
A: 69

Q: Supply recorded SPOT intensity for PPPPPPPPPPLPQSL here.
A: 0

Q: Supply recorded SPOT intensity for EAEEAAPQLPSRSSA here.
A: 529

Q: Supply recorded SPOT intensity for APKHAPPPVPNETDN here.
A: 0

Q: Supply recorded SPOT intensity for GTIARPLFLVVLFFI here.
A: 0

Q: Supply recorded SPOT intensity for PHNPSPFFPPPDFND here.
A: 0

Q: Supply recorded SPOT intensity for PPLPRAPPVPPATFE here.
A: 0

Q: Supply recorded SPOT intensity for TYNRTAFQIPGDQSI here.
A: 0

Q: Supply recorded SPOT intensity for PLRRTVMSLPGNHDI here.
A: 0

Q: Supply recorded SPOT intensity for APPPPPRRATPEKKP here.
A: 424

Q: Supply recorded SPOT intensity for RPVPRRPSQPLNTLS here.
A: 163

Q: Supply recorded SPOT intensity for RRGPAPPPPPRASRP here.
A: 1

Q: Supply recorded SPOT intensity for PALPSLPPPPLLNVD here.
A: 0
